Value source: patent US20230123178A1

- systemTested: full-length human PD1 on cells (human, UniProt Q15116 25-288)
- Sequence (Q15116 25-288 limits assumed): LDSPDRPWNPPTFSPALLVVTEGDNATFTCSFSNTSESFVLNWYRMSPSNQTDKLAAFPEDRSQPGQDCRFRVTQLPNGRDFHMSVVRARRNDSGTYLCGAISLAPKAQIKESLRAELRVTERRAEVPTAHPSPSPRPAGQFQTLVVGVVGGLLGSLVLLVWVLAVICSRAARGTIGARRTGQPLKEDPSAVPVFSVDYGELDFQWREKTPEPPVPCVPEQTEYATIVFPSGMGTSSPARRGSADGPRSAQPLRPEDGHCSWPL
- assayComment: cell-based or functional assay
measuredParameter: Percentage of IFN gamma secretion in MLR against rec hu IL-2 (=100%), dilution 1:12

binder	valueReported
PD1-0069 (antibody, V domains shown) VH: QVQLQQSGPELVRPGVSVKISCKGSGYTFTDYAMHWVKQSHARTLEWIGVISTYSGDTNYNQKFKDKATMTVDKSSSTAYLELARMTSEDSAIYYCARLGITTGFAYWGQGTLVTVSA VL: DIVLTQSPASLAVSLGQRATISCRASKGVSTSSYSFMHWYQQKPRQPPKLLIKYASYLESGVPARFSGSGSGTDFTLNIHPVEEEDAATYYCHHSREFPWTFGGGTKLEIK	76%
PD1-0073 (antibody, V domains shown) VH: EVKLVESGGGLVKPGGSLKLSCAASGFTFSNYGMSWIRQTPEKGLEWVATISGGGRDTYYPDSVKGRFTISRDNVKNNLYLQMSSLRSEDTAFYYCASYYYGIDYWGQGTSVTVSS VL: DIVMTQPHKFMSTSVGDRVRITCKASQDVTTAVAWYQQKPGQSPKLLIYWASTRHTGVPDRFTGSGSGTEFTLTISSVQAEDLALYYCQQHYSIPWTFGGGTKLEIK	103%
PD1-0078 (antibody, V domains shown) VH: QVQLQQPGAELVKPGASVKMSCKASGYTFTSTWMHWVKQRPGQGLEWIGAIDPSDSYTTYNQKFKGKATLTVDTSSTTAYMQLSSLTSEDSAVYYCTRSPFDYWGQGTTLTVSS VL: DIVMTQSHKFMSTSVGDRVSITCKASQDVSTAVAWYQQKPGQSPKLLIYSASYRYTGVPDRFTGSGSGTDFTFAISSVQAEDLAVYYCQQHYSHPFTFGSGTKLEIK	99%
PD1-0050 (antibody, V domains shown) VH: DVQLQESGPGLVKPSQSLSLTCTVTGYSITSDYAWNWIRQFPGNKLEWMGYITYTGRTSYNPSLKSRISITRDTSKNQFFLQLNSVTTEDTATYYCAREMDYYGSTLDYWGQGTTLTVSS VL: KIVLTQSPASLAVSLRQRATISCRASESVDRYGNSFIHWYQQKPGQPPKVLIYRASNLESGFPARFSGSGSRTDFTLTIDPVEADDAATYYCQQNNEDPYTFGSGTKLEIK	136%
